# Lookup of reported in vitro activity EC50 keyed by entry
# experimentalTarget: GLP-1 receptor (UniProt P43220 24-463, limits assumed)
# testDetails: cell-based or functional assay
Numbered stars: 1 amine (or outer) side, 2 acyl side, 3 side chain; on linkers, the order of the positions; unused ones are H or OH. Square brackets hold non-standard residues; d marks the D form. Side chains are listed from the residue outwards. Ends that are not written are not given here. * marks the point of attachment. γGlu = O=C(O)[C@H](CCC(=O)[*:2])N[*:1]; Palmitoyl = CCCCCCCCCCCCCCCC(=O)*
Record the value in pM, omitting the unit from your answer.

Before answering, review these 2 worked examples.
[
  {
    "binder": "H[dS]QGTFTSDK([γGlu-γGlu-Palmitoyl])SKYLDEQAAKEFIAWLMNT [Chi-2, d-Ser2, Lys10 γE-γE-C16 (SEQ ID NO: 644)]",
    "in vitro activity EC50, pM": 3
  },
  {
    "binder": "H[dS]QGTFTSDK([γGlu-Palmitoyl])SKYLDEQAAKEFIAWLMNT [Chi-2, d-Ser2, Lys10 γE-C16 (SEQ ID NO: 643)]",
    "in vitro activity EC50, pM": 1.4
  }
]

Let's switch to this binder now.
Task: Looking for the measured in vitro activity EC50 of XSQGTFTSDYSKYLDERRAKDFVQWLMNK (DMIA at position 1; E16/K20 lactam; C16 fatty acyl on Lys29 via γ-Glu spacer) [DMIA1, E16/K20 lactam, Lys29 γE-C16 (SEQ ID NO: 653)] , can you help?
Result: 75
